All figures here come from the emibetuzumab library of Makowski et al. (2022).

B1: VH:VL chains; a variant is named by its letters at X, in order (parent)
chain 1: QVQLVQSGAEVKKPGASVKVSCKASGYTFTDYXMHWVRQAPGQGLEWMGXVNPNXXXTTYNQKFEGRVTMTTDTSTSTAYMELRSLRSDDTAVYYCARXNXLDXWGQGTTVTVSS
chain 2: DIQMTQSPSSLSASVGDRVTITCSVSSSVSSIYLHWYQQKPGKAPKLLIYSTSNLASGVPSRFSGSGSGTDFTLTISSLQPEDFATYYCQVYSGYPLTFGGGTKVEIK

Variants of: B1
ASSAY_REMARKS: yeast display scFab, FACS + sequencing
CONDITION_DETAILS: with MET
This is one part of the list. The true hit rate is not given.
ENDPOINT: antigen binding call

Would you please look over these solved cases?
[
  {
    "VARIANT_STRING": "VEGGGAAA",
    "antigen binding call": "no binding"
  },
  {
    "VARIANT_STRING": "DRRKAFSA",
    "antigen binding call": "no binding"
  },
  {
    "VARIANT_STRING": "YRGRTSLD",
    "antigen binding call": "binds"
  },
  {
    "VARIANT_STRING": "VEGGGDVV",
    "antigen binding call": "no binding"
  },
  {
    "VARIANT_STRING": "DTREGDVA",
    "antigen binding call": "no binding"
  },
  {
    "VARIANT_STRING": "FREGASWD",
    "antigen binding call": "no binding"
  },
  {
    "VARIANT_STRING": "DEAGTAVA",
    "antigen binding call": "no binding"
  },
  {
    "VARIANT_STRING": "VRRGDAGY",
    "antigen binding call": "binds"
  }
]

Data request: antigen binding call for VRGAGSWV ?
Data returned: no binding

Data request: Again, but for YRARGVGA
Data returned: binds

Data request: What do you get for YRRGGAWV ?
Data returned: binds
